assayText: qHTS assay for identifying genotoxic compounds that show differential cytotoxicity against isogenic chicken DT40 cell lines with known DNA damage response pathways - wild type cell line (AID 743012); further: nearly all actives have a fitted effect of over 60% in size
studyConditions: DT40 wild type chicken cells viability, CellTiter-Glo, 40 h; series mostly up to 68.4 µM
Records with an inconclusive call do not appear. Activity calls are given as the source filed them. The call rests on the fitted dose curve; in most records, active means well fitted cell-killing curve with a large enough effect in the repeat runs; inconclusive means weak or mixed curves, or effect the other way; inactive means no such curve, though single readings can be large or run the other way.
property: Potency

Known results for compounds:
Memo: `CCCC(=O)O[C@]1(C(=O)CO)CC[C@H]2[C@@H]3CCC4=CC(=O)CC[C@]4(C)[C@H]3[C@@H](O)C[C@@]21C` , reported Potency: inactive

Memo: `N=C(N)c1ccccc1` , reported Potency: inactive

Memo: `CC(C)(O)C#CC(C)(C)O` , reported Potency: inactive

Memo: CCn1ccnc1CC1COc2ccccc2O1 (stereo unspecified) , reported Potency: inactive

Memo: `COc1nc(N)nc2c1ncn2[C@@H]1O[C@H](CO)[C@@H](O)[C@@H]1O` , reported Potency: inactive

Memo: `CCCc1cc(C(N)=S)ccn1` , reported Potency: inactive

Memo: `CC[N+](C)(C)c1cccc(O)c1` , reported Potency: inactive

Memo: N[C@H]1CN(c2c(F)cc3c(=O)c(C(=O)O)cn(C4C[C@H]4F)c3c2Cl)CC12CC2 (stereo partly specified) , reported Potency: inactive

Memo: `CCCCNC(=O)NCCCC` , reported Potency: inactive

Memo: NC(CSCC(=O)O)C(=O)O (stereo unspecified) , reported Potency: inactive

New cases:
Memo: `CCN1CCC[C@H]1CNC(=O)c1cc(S(N)(=O)=O)ccc1OC` , reported Potency: inactive

Memo: `COC(=O)c1cc(C(=O)OC)cc(S(=O)(=O)O)c1` , reported Potency: inactive

Memo: CC(C)CCCC(C)N (stereo unspecified) , reported Potency: inactive

Memo: `O=c1n(CCO)c(=O)n(CCO)c(=O)n1CCO` , reported Potency: inactive

Hello, the source for this data is PubChem BioAssay (Tox21), in case you need it.
